Where do the numbers come from? From PubChem BioAssay (NCI).

# Test system: RPMI-8226 leukemia
# test_details: NCI-60 one-dose screen, 48 h (100 = growth as untreated, 0 = no growth, -100 = all killed)
# stated_conditions: 10 µM unless noted
Compounds without any hit were thinned out: in the full panel of roughly 83,000, 20% have a hit.
growth strictly under 50% means Satisfied; at 50% or over means Not satisfied.

Example cases with answers are listed next.
1. COc1cnc2c(c1)C(=O)c1c-2n(CCCN2CCNCC2)c(=O)c2cc(F)ccc12    Satisfied
2. Cc1ccc2nc(-c3ccc(N(C)C)c(Br)c3)cn2c1    Not satisfied
3. ICCC(c1ccccc1)(c1ccccc1)c1ccccc1    Satisfied

Inquiry: Identify whether the compound "Cc1ccc(C(=O)Cc2ccccc2)c(O)c1" records growth below 50%.
Reply text: Not satisfied

Inquiry: Identify whether the compound "C=CCN(/C=C/CN(CC=C)CC=C)CC=C" records growth below 50%.
Reply text: Not satisfied

Inquiry: Identify whether the compound "O=C(NCCCl)NCCN1c2nc3ccccc3cc2Sc2cc3ccccc3nc21" records growth below 50%.
Reply text: Satisfied

Inquiry: Identify whether the compound "CCOC(=O)CCC(=O)O[C@H]1[C@H](O[C@@H]2[C@@H](C)[C@H](O[C@H]3C[C@@](C)(OC)[C@@H](O)[C@H](C)O3)[C@@H](C)C(=O)O[C@H](CC)[C@@](C)(O)[C@H](O)[C@@H](C)C(=O)[C@H](C)C[C@@]2(C)O)O[C@H](C)C[C@@H]1N(C)C" records growth below 50%.
Reply text: Not satisfied

Inquiry: Identify whether the compound "CCN1CCN(c2nc(NNC(=O)Cc3ccccc3)nc(N3CCN(C(c4ccccc4)c4ccccc4)CC3)n2)CC1" records growth below 50%.
Reply text: Satisfied

Inquiry: Identify whether the compound COc1cccc(C2=NN(C(C)=O)C(c3cc(OC)c(OC)c(OC)c3)C2)c1 (stereo not given) records growth below 50%.
Reply text: Satisfied

###

# System: HOP-92 NSCLC
# test_details: NCI-60 one-dose screen, 48 h (100 = growth as untreated, 0 = no growth, -100 = all killed)
# stated_conditions: 10 µM unless noted
About 83,000 compounds went through this panel and 20% of them were active in at least one assay; those are over-represented in the sample as a whole.
assay_readout: growth (%)
Report the value in % with no unit label.

Worked cases, answers included:
1. c1ccc(-c2nc(Nc3nccnn3)c3ccccc3n2)cc1    105
2. CC(=O)c1nn(-c2ccccc2)c(=Nc2ccccc2)cc1C    55.2
3. COC(=O)CC1=C(c2ccc([N+](=O)[O-])cc2)CCC1=O    89.5

Inquiry: Can you look up the measured growth of "O=C(NN1C(=O)c2cc(C(=O)O)c(C(=O)O)cc2C1=O)c1ccncc1" for me?
Reply text: 4.14

###

# Tested on: MALME-3M melanoma
# test_details: NCI-60 one-dose screen, 48 h (100 = growth as untreated, 0 = no growth, -100 = all killed)
# stated_conditions: 10 µM unless noted
About 83,000 compounds went through this panel and 20% of them were active in at least one assay; those are over-represented in the sample as a whole. Activity calls are given as the source filed them. The calls were made as follows: active = growth percent below 10; inactive = the rest.
assay_readout: growth

Worked cases, answers included:
1) COc1ccc(-c2nc3sc4c(c3c(=O)[nH]2)CCCCCC4)cc1    8.18% (active)
2) COC(=O)c1cc2c(/C=C3/NC(=S)NC3=O)coc2n1C    58.4% (inactive)
3) COc1ccc(-c2c3c(N)nc(-c4ccncc4)nc3nc3c2c(C)nn3-c2ccccc2)cc1    76% (inactive)
4) O=C(NC1CCCCC1)c1ccc(Nc2ncnc3c2cnn3-c2ccccc2)cc1    2.93% (active)

Inquiry: Can you look up the measured growth of "COc1cc(C(=O)c2cc3c(cc2C)OCO3)cc(OC)c1OC" for me?
Reply text: 50.4% (inactive)
